# Target Of Assay: Integrin alpha-IIb/beta-3 (Homo sapiens, UniProt P08514+P05106)
# Sequence (P05106 27-788 limits assumed): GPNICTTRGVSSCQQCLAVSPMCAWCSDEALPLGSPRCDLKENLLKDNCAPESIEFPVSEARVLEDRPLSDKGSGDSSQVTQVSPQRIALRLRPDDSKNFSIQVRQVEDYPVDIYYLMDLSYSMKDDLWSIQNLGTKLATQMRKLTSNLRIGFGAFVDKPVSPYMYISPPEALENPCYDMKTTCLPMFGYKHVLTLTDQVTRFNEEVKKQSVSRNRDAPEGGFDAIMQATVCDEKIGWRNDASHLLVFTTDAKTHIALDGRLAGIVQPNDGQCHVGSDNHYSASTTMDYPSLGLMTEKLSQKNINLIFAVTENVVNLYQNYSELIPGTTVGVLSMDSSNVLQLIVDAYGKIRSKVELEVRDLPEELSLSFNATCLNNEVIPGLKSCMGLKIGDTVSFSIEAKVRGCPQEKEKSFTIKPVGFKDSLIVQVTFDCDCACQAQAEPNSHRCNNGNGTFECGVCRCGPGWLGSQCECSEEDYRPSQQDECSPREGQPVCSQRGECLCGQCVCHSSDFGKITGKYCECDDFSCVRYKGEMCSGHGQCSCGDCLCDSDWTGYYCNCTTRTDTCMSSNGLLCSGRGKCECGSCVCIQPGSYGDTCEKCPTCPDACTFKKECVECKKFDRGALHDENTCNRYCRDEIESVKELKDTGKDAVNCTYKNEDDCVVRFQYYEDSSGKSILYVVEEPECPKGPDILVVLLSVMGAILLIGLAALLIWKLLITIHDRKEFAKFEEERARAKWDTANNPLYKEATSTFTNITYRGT
# Sequence (P08514 32-887 limits assumed): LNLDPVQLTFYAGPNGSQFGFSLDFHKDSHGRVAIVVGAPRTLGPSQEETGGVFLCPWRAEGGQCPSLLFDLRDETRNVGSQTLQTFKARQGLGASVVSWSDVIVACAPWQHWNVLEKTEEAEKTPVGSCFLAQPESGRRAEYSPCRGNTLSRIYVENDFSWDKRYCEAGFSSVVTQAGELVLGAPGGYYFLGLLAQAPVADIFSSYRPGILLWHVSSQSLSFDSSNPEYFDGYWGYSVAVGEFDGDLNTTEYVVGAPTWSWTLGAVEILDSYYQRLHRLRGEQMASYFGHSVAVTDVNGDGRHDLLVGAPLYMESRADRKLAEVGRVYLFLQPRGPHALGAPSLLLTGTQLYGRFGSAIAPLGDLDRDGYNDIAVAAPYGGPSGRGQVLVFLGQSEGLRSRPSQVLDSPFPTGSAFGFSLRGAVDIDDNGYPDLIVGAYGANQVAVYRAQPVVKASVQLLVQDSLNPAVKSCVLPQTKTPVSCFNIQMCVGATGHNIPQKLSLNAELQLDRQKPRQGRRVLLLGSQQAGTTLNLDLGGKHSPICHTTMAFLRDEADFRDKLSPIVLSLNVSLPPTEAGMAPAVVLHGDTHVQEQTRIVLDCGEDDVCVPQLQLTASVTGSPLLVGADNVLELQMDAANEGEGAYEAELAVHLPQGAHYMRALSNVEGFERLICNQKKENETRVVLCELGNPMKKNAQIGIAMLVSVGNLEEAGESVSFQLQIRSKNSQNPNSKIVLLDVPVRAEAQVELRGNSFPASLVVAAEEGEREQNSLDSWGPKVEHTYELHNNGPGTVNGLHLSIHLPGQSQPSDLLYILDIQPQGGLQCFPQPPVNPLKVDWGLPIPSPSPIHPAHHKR
# Sequence (P08514 891-1039 limits assumed): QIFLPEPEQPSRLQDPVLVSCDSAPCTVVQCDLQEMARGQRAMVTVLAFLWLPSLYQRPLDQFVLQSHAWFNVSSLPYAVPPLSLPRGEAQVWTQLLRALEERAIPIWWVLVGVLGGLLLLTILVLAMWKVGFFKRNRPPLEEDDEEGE
# Assay Summary: In vitro inhibition of ADP-induced (2.5 uM) human platelet aggregation.
Friendly reminder: IC50 below 200 nM is yes (1), at or above is no (0).

molecule="N=C(N)c1ccc(-c2csc(NC3CCN(C(C(=O)O)c4ccccc4)CC3)n2)cc1 (configuration not stated)" class_name="yes (1)"
molecule="COC(=O)CC(C(=O)O)N1CCC(Nc2nc(-c3ccc(C(=N)N)cc3)cs2)CC1 (configuration not stated)" class_name="yes (1)"
molecule=CC(C)(C(=O)O)N1CCC(Nc2nc(-c3ccc(C(=N)N)cc3)cs2)CC1 class_name="no (0)"
molecule="N=C(N)c1ccc(-c2csc(NC3CCN(C(C(=O)O)c4ccccc4Cl)CC3)n2)cc1 (configuration not stated)" class_name="no (0)"
molecule=N=C(N)c1ccc(-c2csc(NC3CCN(CC(=O)O)CC3)n2)cc1 class_name="yes (1)"
molecule="CC(C(=O)O)N1CCC(Nc2nc(-c3ccc(C(=N)N)cc3)cs2)CC1 (configuration not stated)" class_name="no (0)"
molecule=N=C(N)c1ccc(-c2csc(N(CC(=O)O)C3CCN(CC(=O)O)CC3)n2)cc1 class_name="yes (1)"
molecule=N=C(N)c1ccc(-c2csc(N(CCC(=O)O)C3CCN(CC(=O)O)CC3)n2)cc1 class_name="yes (1)"
molecule=CN(c1nc(-c2ccc(C(=N)N)cc2)cs1)C1CCN(CC(=O)O)CC1 class_name="yes (1)"
molecule=N=C(N)c1ccc(-c2csc(N(CCCC(=O)O)C3CCN(CC(=O)O)CC3)n2)cc1 class_name="yes (1)"
molecule=N=C(N)c1ccc(-c2csc(N(Cc3ccccc3)C3CCN(CC(=O)O)CC3)n2)cc1 class_name="no (0)"
molecule=N=C(N)c1ccc(-c2csc(NC3CCN(CCC(=O)O)CC3)n2)cc1 class_name="no (0)"

Data origin: BindingDB's records for doi:10.1021/jm970240y
